Cited source: PubChem BioAssay

Tested on: Wnt5a (protein binding on small-molecule microarray)
Experiment: Wnt5a binders on small-molecule microarray, primary screen, biophysical, 635/667 nm fluorescence (AID 1142);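 further: fluorescence read at 667 nm with signal to noise per printed feature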
Settings: 635 nm fluorescence, higher = more signal
Entries and their composite z-score values follow.

Reference set (4 entries):
given.smiles: CO[C@@H]1COC(=O)CCC[C@@H](C)[C@H](OC)COC(=O)[C@H](Cc2ccccc2)NC(=O)CC=C[C@H]1C
target.or.system: Wnt5a (protein binding on small-molecule microarray)
obs.value: -0.706
--
given.smiles: COC(=O)C1=C(C)N(Cc2ccccc2)[C@]23O[C@](C(=O)OC)(C(=O)N2[C@@H]1c1ccccc1)[C@H]1CCOC(=O)[C@H]13
target.or.system: Wnt5a (protein binding on small-molecule microarray)
obs.value: 0.313
--
given.smiles: COCCOC(=O)N1C(=O)[C@@]2(c3cc(C#Cc4ccc(OC)cc4)ccc31)[C@H](C(=O)N1CCN(c3ncccn3)CC1)[C@H]1C(=O)O[C@H](c3ccccc3)[C@H](c3ccccc3)N1[C@@H]2c1ccc(OCCO)cc1
target.or.system: Wnt5a (protein binding on small-molecule microarray)
obs.value: 0.044
--
given.smiles: O=C(NN=C1C[C@@H](O)[C@@H](O)[C@@H]2[C@@H]3C(=O)N(c4cccc(Oc5ccccc5)c4)C(=O)[C@@H]3CC[C@@H]12)OCc1ccccc1
target.or.system: Wnt5a (protein binding on small-molecule microarray)
obs.value: -0.0255

Record COc1ccc(O[C@H]2C=C[C@@H](c3ccccc3)O[C@@H]2COC(=O)CCC(C)=NO[C@H](C)c2cn([C@@H]3COC[C@H]3O)nn2)cc1 , field composite z-score: 0.276

Record CC(C)NC(=O)[C@@H]1c2ccccc2C(=O)N(CC23CC4CC(CC(C4)C2)C3)[C@H]1c1ccc(CO)cc1 , field composite z-score: 0.0678

* * *

Test system: wheat germ agglutinin (Triticum aestivum), Alexa647-labelled
Test: wheat germ agglutinin binders on compound microarrays, profiling panel, artefact control for SMM control-protein annotation, biochemical, small-molecule microarray, 635/667 nm fluorescence (AID 1140);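 further: score merges 667 nm feature emission with signal to noise over triplicate slides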
Details: WGA-A647 binding, 635 nm fluorescence, higher = more signal
Entries and their composite z-score values follow.
Simply state the number, no unit and no words.

Reference set (3 entries):
given.smiles: COCCOC(=O)N1C(=O)[C@@]2(c3cc(C#CC4(O)CCCCCC4)ccc31)[C@H](C(=O)N1CCN(c3ncccn3)CC1)[C@H]1C(=O)O[C@H](c3ccccc3)[C@H](c3ccccc3)N1[C@@H]2c1ccc(OCCO)cc1
composite z-score: 1.09
--
given.smiles: COC(=O)[C@H]1COC(c2ccc(OCCCO)cc2)=N1
composite z-score: 0.177
--
given.smiles: COc1ccc(O[C@H]2C=C[C@@H](c3ccccc3)O[C@@H]2COC(=O)N2CCCCC2)cc1
composite z-score: -0.249

Continue with the compound presented below.
Record COCCOC(=O)N1C(=O)[C@@]2(c3cc(C#CCNC(N)=O)ccc31)[C@H](c1ccccc1OCCO)N1[C@H](c3ccccc3)[C@H](c3ccccc3)OC(=O)[C@H]1[C@@H]2C(=O)N1CCN(c2ncccn2)CC1 , field composite z-score: 0.727

* * *

Test: CREB reporter modulators under forskolin, primary screen, cell-based, PC12, CRE-LacZ reporter, forskolin-stimulated (AID 1146);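 further: PC12 cells with 6xCRE LacZ reporter stimulated by forskolin 10 µM; beta-galactosidase reporter signal reflecting CREB driven transcription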
Conditions: luminescence, 4.5 h, higher = more signal, called active from +8 up or from −8 down
Mark F for z-score values under 0.1, and T for everything at or above.

Solved entries:
molecule: O=C1O[C@@H](c2ccccc2)[C@@H](c2ccccc2)N2[C@@H](c3ccccc3OCCO)[C@]3(C(=O)Nc4ccc(C#CCCO)cc43)[C@@H](C(=O)O)[C@H]12
qualitative.label: T
//
molecule: CN1C(=O)C2C=CC(C(O)C(c3ccccc3)c3ccccc3)N(NC(=O)OC(C)(C)C)C2C1=O (configuration not stated)
qualitative.label: F
//
molecule: CO[C@@H]1COC(=O)[C@@H]2CCCN2C(=O)[C@@H](C)COC(=O)[C@H](COCc2ccccc2)NC(=O)CC=C[C@H]1C
qualitative.label: T

Exercise: Is it the case that CC=CC1=C(CO)[C@H](O)[C@H]2O[C@H]2[C@H]1O has z-score reaching or exceeding 0.1?
Key: T

Exercise: Is it the case that COCCOC(=O)N1C(=O)[C@@]2(c3cc(C#Cc4ccc(OC)cc4)ccc31)[C@H](c1ccc(O)cc1)N1[C@H](c3ccccc3)[C@H](c3ccccc3)OC(=O)[C@H]1[C@@H]2C(N)=O has z-score reaching or exceeding 0.1?
Key: F

Exercise: Is it the case that CC(CCN1CCCCc2nc(C)c(C)cc21)=NOC(C)CN1CCCCc2nc(C)c(C)cc21 (configuration not stated) has z-score reaching or exceeding 0.1?
Key: T

Exercise: Is it the case that CC(C)NC(=O)[C@@]1(c2ccc([N+](=O)[O-])cc2)CC(=O)N(CC23CC4CC(CC(C4)C2)C3)[C@@H]1c1ccc(CO)cc1I has z-score reaching or exceeding 0.1?
Key: F
